Molecular target: 3E10-D31N IgG4 S228P/F234A/L235A/T307Q/N434A (synthetic construct, UniProt P01861; SEQ:1-443,SEQ:1-218)
Sequence (P01861 other isoform, or with tags, fused parts or gaps with the stated changes, chain 1 of 2): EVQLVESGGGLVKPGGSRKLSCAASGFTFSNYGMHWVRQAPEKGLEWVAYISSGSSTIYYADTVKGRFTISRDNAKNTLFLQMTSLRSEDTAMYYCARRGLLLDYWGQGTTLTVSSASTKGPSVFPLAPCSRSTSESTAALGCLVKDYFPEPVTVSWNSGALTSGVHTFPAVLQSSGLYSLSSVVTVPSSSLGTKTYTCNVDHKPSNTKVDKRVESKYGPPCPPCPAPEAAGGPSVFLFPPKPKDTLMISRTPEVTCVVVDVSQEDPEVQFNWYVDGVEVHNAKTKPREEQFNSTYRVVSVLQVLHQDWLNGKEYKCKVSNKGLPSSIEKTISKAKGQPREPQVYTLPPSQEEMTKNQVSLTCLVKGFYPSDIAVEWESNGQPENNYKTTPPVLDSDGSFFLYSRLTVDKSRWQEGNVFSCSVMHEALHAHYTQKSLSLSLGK
Sequence (chain, as listed by the source with the stated changes, chain 2 of 2): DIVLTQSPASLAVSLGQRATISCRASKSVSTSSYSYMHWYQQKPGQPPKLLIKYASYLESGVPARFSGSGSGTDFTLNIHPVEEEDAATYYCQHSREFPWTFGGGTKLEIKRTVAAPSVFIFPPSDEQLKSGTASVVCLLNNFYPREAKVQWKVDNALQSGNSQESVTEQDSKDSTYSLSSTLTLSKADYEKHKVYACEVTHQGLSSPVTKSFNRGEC
Test: BLI; 1:1 model; antibody on AHC2 sensor; RNA 62.5-500 nM
Settings: tags: human IgG4 Fc; chain copies: 2 heavy + 2 light (inferred); hairpin
reported_property: pKd
A value of pKd is the negative decimal logarithm of a concentration given in moles per litre.

In: Recorded pKd for 3p-hpRNA RIG-I agonist (89 nt) (ssRNA, 5'-triphosphate) RNA: GGAGCAAAAGCAGGGUGACAAAGACAUAAUGGAUCCAAACACUGUGUCAAGCUUUCAGGUAGAUUGCUUUCUUUGGCAUGUCCGCAAAC , please?
Out: 7.90
